This collection of values is drawn from patent US6348477B1.

Measured Endpoint: melting point

[[record]]
compound = "CCCCN(CCCC)C(=O)C(=O)Nc1ccc(-c2csc(N)n2)cc1 [Example 4]"
result = "178 to 179 °C"

[[record]]
compound = "Nc1nc(-c2ccc(NC(=O)CN(Cc3ccccc3)C(=O)N3CCOCC3)cc2)cs1 [Example 6]"
result = "105 °C (dec.)"

[[record]]
compound = "NC(=O)N(Cc1ccc(F)cc1)c1ccc(-c2csc(N)n2)cc1 [Example 2]"
result = "227 to 230 °C"

[[record]]
compound = "CN(C(=O)CNCc1ccccc1)c1ccc(-c2csc(N)n2)cc1 [Example 10]"
result = "160 to 162 °C"

[[record]]
compound = "CC(C)(C)OC(=O)N[C@@H](Cc1ccccc1)C(=O)Nc1ccc(-c2csc(N)n2)cc1 [Example 11]"
result = "183 to 185 °C"

